ASSAYED_TARGET: Microtubule-associated protein 1 light chain 3 beta (Homo sapiens)
ASSAY_PROCEDURE: Binding affinity against recombinant LC3B (unknown origin) assessed as dissociation constant by surface plasmon resonance assay
MEASURED_PROPERTY: Kd (µM)
Answer with a number only, understood to be in µM.

Input: Print Microtubule-associated protein 1 light chain 3 beta (Homo sapiens) Kd for O=C1Nc2ccc(I)cc2/C1=C\c1cc(Br)c(O)c(Br)c1 .
Output: 8.9

---

ASSAYED_TARGET: Microtubule-associated protein 1 light chain 3 beta (Homo sapiens, UniProt Q9GZQ8)
ASSAY_PROCEDURE: Binding affinity against recombinant LC3B (unknown origin) assessed as dissociation constant by small molecule microarray with a scanning oblique-incidence reflectivity difference microscopic analysis
MEASURED_PROPERTY: pKd
Give only the number. pKd is defined as minus log10 of concentration in molar units.

Input: Give a short answer stating reported pKd for O=C1Nc2ccc(I)cc2/C1=C\c1cc(Br)c(O)c(Br)c1 .
Output: 6.33
